- test-target: Fibroblast growth factor 22 (Homo sapiens) (UniProt Q9HCT0)
- Sequence (Q9HCT0 whole entry, looked up): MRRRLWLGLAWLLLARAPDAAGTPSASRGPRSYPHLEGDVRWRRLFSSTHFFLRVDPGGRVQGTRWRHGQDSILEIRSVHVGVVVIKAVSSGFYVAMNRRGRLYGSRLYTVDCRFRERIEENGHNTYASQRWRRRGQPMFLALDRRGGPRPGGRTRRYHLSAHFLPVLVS
- experimental-protocol: FGF22 ligand-induced thermal stabilization – biophysical, thermal shift, cherry-pick, FGF22 synaptogenesis inhibitor project, dose response (AID 687022)
- condition-info: recombinant FGF22 thermal shift, SYPRO orange melting
Active and inactive are the calls of the source.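 The calls were made as follows: active = Fitted curve of melting temperature shift crosses the 1.0 threshold at or below the sample's highest valid tested concentration; inconclusive = Flat fit with activity 30 to 70, or invalid fit; inactive = Opposite direction, flat within 30, or no crossing.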
Outcome codes: class 1 (active), class 0 (inactive)

{"compound": "O=c1c(O)c(-c2cc(O)c(O)c(O)c2)oc2cc(O)cc(O)c12", "label-class": "class 1"}
{"compound": "O=C(Nc1ccc(F)cc1)N[C@@H]1CC[C@H](CCn2cc(-c3ccccc3F)nn2)O[C@H]1CO", "label-class": "class 1"}
{"compound": "CCOc1ccc(NS(=O)(=O)c2ccc(C(=O)NNC(=O)c3ccccc3O)cc2)cc1", "label-class": "class 0"}
{"compound": "O=C(Nc1nccs1)c1ccc(S(=O)(=O)NCc2cccs2)cc1", "label-class": "class 1"}
{"compound": "O=C(O)C[C@@H]1C[C@H]2c3cc(NC(=O)Nc4ccc(C(F)(F)F)cc4)ccc3O[C@H]2[C@@H](CO)O1", "label-class": "class 0"}
{"compound": "CCN(CC)c1ccc2cc(S(=O)(=O)c3ccc(Cl)cc3)c(=O)oc2c1", "label-class": "class 1"}
{"compound": "COc1ccccc1NC(=O)N[C@@H]1CC[C@@H](CCn2cc(-c3ccccc3OC)nn2)O[C@@H]1CO", "label-class": "class 1"}
{"compound": "CCCC(=O)c1ccc(OCc2cn(CC(=O)c3ccc(O)cc3)nn2)cc1", "label-class": "class 1"}
{"compound": "Nc1nonc1N/N=C\\c1ccccc1", "label-class": "class 1"}
{"compound": "CCC(C)n1c(O)c(C(c2ccccn2)c2c(O)n(C(C)CC)c(=S)[nH]c2=O)c(=O)[nH]c1=S (stereo not given)", "label-class": "class 1"}

---

- test-target: UniProt:Q9HCT0
- experimental-protocol: FGF22 ligand-induced thermal stabilization – biophysical, thermal shift, cherry-pick, FGF22 synaptogenesis inhibitor project, dose response (AID 687022)
- condition-info: recombinant FGF22 thermal shift, SYPRO orange melting
The source made the active and inactive calls.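 Rule for the calls: active = Fitted curve of melting temperature shift crosses the 1.0 threshold at or below the sample's highest valid tested concentration; inconclusive = Flat fit with activity 30 to 70, or invalid fit; inactive = Opposite direction, flat within 30, or no crossing.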
AbsAC1 (concentration giving Tm-shift threshold 1.0) for assorted molecules
measured-quantity: AbsAC1 (concentration giving Tm-shift threshold 1.0)

{"molecule": "O=S(=O)(Nc1cc(Cl)ccc1-n1cncn1)c1ccc(F)cc1", "observed-measurement": "15.2 µM"}
{"molecule": "COc1cc(/C=N/NC(=O)c2[nH]nc3c2CCc2ccccc2-3)ccc1O", "observed-measurement": "6.1 µM"}
{"molecule": "COc1ccc(S(=O)(=O)Nc2ccc(NC(C)=O)cc2)cc1Cl", "observed-measurement": "26.6 µM"}
{"molecule": "O=C(C[C@H]1CC[C@H]2[C@@H](COC[C@H](O)CN2Cc2ccccc2)O1)NCCc1ccccc1", "observed-measurement": "> 38 µM (inactive)"}
{"molecule": "COc1ccc(Nc2nc3ccc(OC)cc3s2)cc1", "observed-measurement": "2.95 µM"}
{"molecule": "CC(=O)Nc1cccc(C(=O)N/N=C/c2c[nH]c3ccccc23)c1", "observed-measurement": "2.4 µM"}
{"molecule": "CCN1C(=O)C(CC(=O)Nc2ccc(F)cc2)N(Cc2ccc3c(c2)OCO3)C1=S (centres undefined)", "observed-measurement": "2.83 µM"}
{"molecule": "O=C(Nc1ccc(F)cc1)N[C@@H]1CC[C@H](CCn2cc(-c3ccc(F)cc3)nn2)O[C@H]1CO", "observed-measurement": "13 µM"}
{"molecule": "O=C(Nc1ccc2c(c1)OCO2)c1ccc(NC2CC2)c([N+](=O)[O-])c1", "observed-measurement": "17.8 µM"}
{"molecule": "O=C1C(Cl)=C(NS(=O)(=O)c2ccc([N+](=O)[O-])cc2)C(=O)c2ccccc21", "observed-measurement": "7.4 µM"}
{"molecule": "O=C(NCCc1c[nH]c2ccccc12)c1ccc(Cl)cc1", "observed-measurement": "2.49 µM"}
{"molecule": "COc1cc(NC(=O)c2ccc3c(c2)OCCO3)ccc1NC(=O)c1cccs1", "observed-measurement": "3.85 µM"}
{"molecule": "Cc1ccc(-c2n[nH]c(=S)n2/N=C/c2c(C)[nH]n(-c3ccccc3)c2=O)cc1", "observed-measurement": "4.65 µM"}
{"molecule": "COc1ccc2o/c(=N\\O)c(C(=O)Nc3ccc(C)cc3)cc2c1", "observed-measurement": "28 µM"}
{"molecule": "CCc1ccc(N2CC(C(=O)OCC(=O)Nc3ccc(C(C)=O)cc3)CC2=O)cc1 (centres undefined)", "observed-measurement": "17.7 µM"}
{"molecule": "COc1ccc(-c2ccc([C@@H]3[C@@H](CO)N4CCCCN(C(=O)c5ccc(F)cc5)C[C@@H]34)cc2)cc1", "observed-measurement": "3.54 µM"}
{"molecule": "O=[N+]([O-])c1cc(CS(=O)(=O)Oc2ccc(Cl)cc2)c(O)c([N+](=O)[O-])c1", "observed-measurement": "> 5 µM (inactive)"}
{"molecule": "CCNC(=O)C[C@@H]1CC[C@H]2[C@H](COc3ccc(NC(=O)Nc4ccc(Cl)cc4)cc3C(=O)N2C)O1", "observed-measurement": "6.25 µM"}
{"molecule": "C[C@@H]1CN([C@@H](C)CO)S(=O)(=O)c2ccc(-c3ccncc3)cc2O[C@@H]1CN(C)C(=O)Nc1ccc(C(F)(F)F)cc1", "observed-measurement": "1.96 µM"}
